- target-desc: IP3 binding domain (IBD, amino acid residues 1-885) of human IP3 receptor type 1 (Homo sapiens, UniProt Q14643)
- Sequence (Q14643 1-885 isoform Q14643-4): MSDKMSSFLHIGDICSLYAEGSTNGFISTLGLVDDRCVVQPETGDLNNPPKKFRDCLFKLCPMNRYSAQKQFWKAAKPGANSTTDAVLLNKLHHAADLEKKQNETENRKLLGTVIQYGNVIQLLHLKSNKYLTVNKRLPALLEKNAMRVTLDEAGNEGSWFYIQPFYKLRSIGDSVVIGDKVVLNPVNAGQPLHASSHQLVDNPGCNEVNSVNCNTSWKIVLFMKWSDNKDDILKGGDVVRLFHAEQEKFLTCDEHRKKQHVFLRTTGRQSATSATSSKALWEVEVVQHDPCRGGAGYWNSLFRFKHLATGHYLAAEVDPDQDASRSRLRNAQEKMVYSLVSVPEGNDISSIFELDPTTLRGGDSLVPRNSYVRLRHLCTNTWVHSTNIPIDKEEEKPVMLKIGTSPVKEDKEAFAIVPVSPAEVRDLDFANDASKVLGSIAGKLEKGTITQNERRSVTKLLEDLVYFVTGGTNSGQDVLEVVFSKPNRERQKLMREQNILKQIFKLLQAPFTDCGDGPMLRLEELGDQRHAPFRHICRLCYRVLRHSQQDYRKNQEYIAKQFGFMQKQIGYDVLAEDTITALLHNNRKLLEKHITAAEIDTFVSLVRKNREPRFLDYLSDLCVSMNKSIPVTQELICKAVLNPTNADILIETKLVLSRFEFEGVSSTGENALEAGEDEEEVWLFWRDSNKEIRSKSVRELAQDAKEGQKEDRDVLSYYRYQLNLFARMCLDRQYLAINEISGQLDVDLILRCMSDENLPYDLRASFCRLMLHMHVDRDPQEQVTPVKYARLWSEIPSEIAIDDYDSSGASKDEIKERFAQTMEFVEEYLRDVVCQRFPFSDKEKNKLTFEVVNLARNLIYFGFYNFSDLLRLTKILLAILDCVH
pKd: −log10 of the molar value.
outcome-measure: pKd

A = CN(C)c1ccc(C(=C2C=CC(=[N+](C)C)C=C2)c2ccc(C(=O)NCCCOP(=O)(O)O[C@@H]3[C@H](O)[C@H](O)[C@@H](OP(=O)(O)O)[C@H](OP(=O)(O)O)[C@H]3O)cc2)cc1 [Compound 2b]
B = O=P(O)(O)O[C@@H]1[C@H](O)[C@H](O)[C@@H](OP(=O)(O)O)[C@H](OP(=O)(O)O)[C@H]1O [IP3, D-Myo-inositol-1,4,5-trisphosphate]
C = NCCCOP(=O)(O)O[C@@H]1[C@H](O)[C@H](O)[C@@H](OP(=O)(O)O)[C@H](OP(=O)(O)O)[C@H]1O [Compound 1]
Ask: Form: Sort by [pKd] Order [ ascending ] Write the labels in rank order as requested.
Reply: C, B, A
(C: 5.96, B: 6.71, A: 8.93)
